Just for reference, patent EP4644383A1 is where these values come from.

Tested on: Ba/F3-FGFR3-BAIAP2L1 cells
Test: Inhibition of proliferation activity of Ba/F3-FGFR3-BAIAP2L1 cells (CellTiter-Glo)
Assay type: cell-based
Settings: ratio of IC50 Ba/F3-BCR-FGFR1 to IC50 Ba/F3-FGFR3-BAIAP2L1
outcome.measure: Selectivity (X) FGFR1/FGFR3
The response must be a number in X with no trailing unit.

Given the compound [2H]C([2H])([2H])c1cc2nccnc2c(C(C)Oc2ccc3[nH]nc(-c4cnn(C)c4)c3c2)n1 (stereo not shown) , write its reported Selectivity (X) FGFR1/FGFR3. 76

Input Cc1ccc2ncccc2c1C(C)Oc1ccc2[nH]nc(-c3cnn(C)c3)c2c1 (stereo not shown) , output reported Selectivity (X) FGFR1/FGFR3. 51

Annotate the compound CC(Oc1ccc2[nH]nc(-c3cnn(C)c3)c2c1)c1cccc2ncnn12 (stereo not shown) with its measured Selectivity (X) FGFR1/FGFR3. 37

Please give measured Selectivity (X) FGFR1/FGFR3 of the following entry: CC(Oc1ccc2[nH]nc(-c3cnn(C)c3)c2c1)c1cccc2ncccc12 (stereo not shown) 180
